Source listed as FireProtDB (doi:10.1021/bi201411c).

B1: Cyanovirin-N, P81180 (parent)
chain: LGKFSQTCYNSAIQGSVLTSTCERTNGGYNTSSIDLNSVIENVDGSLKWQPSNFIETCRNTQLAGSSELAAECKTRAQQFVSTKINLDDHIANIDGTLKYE

# Variants of: B1
# assayConditions: Nostoc ellipsosporum; pH 6; 25 °C; GdnHCl; fluorescence; sodium phosphate 20 mM; transition: 2; reversible: yes(90%); structure 1IIY; whole UniProt chain shown
propertyLabel: denaturant m value (kcal/mol/M)
Numbers only, in kcal/mol/M.

P51G : 2.6
P51G S11V S20A : 2.6
P51G S11V S20A T61V : 2.1

Moving on to the next variant.
Qu. Which value of denaturant m value has been reported for P51G S11A S20A T61I in the records?
Ans. 2.1
